# Test system: M18 aspartyl aminopeptidase (Plasmodium falciparum 3D7)
# ASSAY_METHOD_TEXT: inhibition of P. falciparum M18 aminopeptidase – biochemical, QFRET, recombinant enzyme, primary screen (AID 1822)
# TEST_SETTINGS: recombinant PfM18AAP, H-Glu-NHMec fluorogenic cleavage; at 7.35 µM
Screen size: about 290,000 compounds; about 3,500 (1.2%) were called active.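 The calls were made as follows: active = inhibition above the campaign mean inhibition over all tested compounds plus 3 SD (cut at about 28% in these data); inactive = the rest.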 The full list was thinned out, with actives kept by preference.
Labels: t for active, f for inactive

COMPOUND	TESTED_SYSTEM	CLASS_NAME
Cc1cc(OC(=O)c2ccccc2Cl)ccc1N1C(=O)CCC1=O	M18 aspartyl aminopeptidase (Plasmodium falciparum 3D7)	f
CC(C)(C)c1ccc(C(=O)N2CCC(C(=O)N3CCCCC3)CC2)cc1	M18 aspartyl aminopeptidase (Plasmodium falciparum 3D7)	f
O=C(CCc1ccccc1)Nc1ncc([N+](=O)[O-])s1	M18 aspartyl aminopeptidase (Plasmodium falciparum 3D7)	f
O=C(Nc1ccccc1)c1ccco1	M18 aspartyl aminopeptidase (Plasmodium falciparum 3D7)	f
O=C(Nc1cccnc1Cl)c1cc(-c2cccc(Cl)c2)on1	M18 aspartyl aminopeptidase (Plasmodium falciparum 3D7)	f
Cc1onc(C(=O)NN)c1-c1csc(COc2ccccc2)n1	M18 aspartyl aminopeptidase (Plasmodium falciparum 3D7)	f
Cc1cccn2c(=O)c3cc(C(=O)NCCN4CCOCC4)c(=N)n(Cc4cccnc4)c3nc12	M18 aspartyl aminopeptidase (Plasmodium falciparum 3D7)	f
CCc1[nH]nc(C(=O)N2CCCC(CO)(Cc3ccc(F)cc3F)C2)c1C (stereo unspecified)	M18 aspartyl aminopeptidase (Plasmodium falciparum 3D7)	f
COc1ccc(-c2csc(Cc3nc(O)cs3)n2)cc1	M18 aspartyl aminopeptidase (Plasmodium falciparum 3D7)	f
CC1CCN(C(=O)CCc2nnc3ccc(NCc4ccco4)nn23)CC1	M18 aspartyl aminopeptidase (Plasmodium falciparum 3D7)	f
CC(C)(C)C(=O)OCc1nc(-c2ccc(O)c(O)c2)cs1	M18 aspartyl aminopeptidase (Plasmodium falciparum 3D7)	t
